# ASSAY NOTES: Solubility by UV-Visible spectroscopy in aqueous 0.1 M HCl (pH 1) at 22° C.
# Assay type: physicochemical
# PROTOCOL CONDITIONS: 22 °C, pH 1, simulated gastric fluid, thermodynamic from solid, Solubility
Counter-ions that a name gives are not always drawn.
QUANTITY NAME: solubility at 24 h (µg/mL)
Number in µg/mL, nothing else.

Problem: Note down solubility at 24 h recorded for COC(=O)C1=C(C)NC(C)=C(C(=O)OC(C)(C)CN(C)CCC(c2ccccc2)c2ccccc2)C1c1cccc([N+](=O)[O-])c1 (stereo not shown) [Crystalline hydrochloride, lercanidipine hydrochloride, reference compound]
Solution: 10

###

# ASSAY NOTES: Solubility by UV-Visible spectroscopy in aqueous 0.1 M HCl (pH 1) at 22° C.
# Format: physicochemical
# PROTOCOL CONDITIONS: 22 °C, pH 1, simulated gastric fluid, thermodynamic from solid, solubility in 0.1 N HCl
Where a name gives a salt, the structure may show the parent alone.
QUANTITY NAME: solubility at 24 h

Problem: Note down solubility at 24 h recorded for COC(=O)C1=C(C)NC(C)=C(C(=O)OC(C)(C)CN(C)CCC(c2ccccc2)c2ccccc2)C1c1cccc([N+](=O)[O-])c1 (stereo not shown) [Crystalline hydrochloride, lercanidipine hydrochloride, reference compound]
Solution: ~10 µg/mL

###

# ASSAY NOTES: Solubility by UV-Visible spectroscopy in aqueous 0.1 M HCl (pH 1) at 22° C.
# Format: physicochemical
# PROTOCOL CONDITIONS: pH 1
QUANTITY NAME: solubility (µg/mL)
Number in µg/mL, nothing else.

Problem: Note down solubility recorded for COC(=O)C1=C(C)NC(C)=C(C(=O)OC(C)(C)CN(C)CCC(c2ccccc2)c2ccccc2)C1c1cccc([N+](=O)[O-])c1.COC(=O)C1=C(C)NC(C)=C(C(=O)OC(C)(C)CN(C)CCC(c2ccccc2)c2ccccc2)C1c1cccc([N+](=O)[O-])c1.O=S(=O)(O)c1cccc2c(S(=O)(=O)O)cccc12 (stereo not shown) [Crystalline napadisylate, lercanidipine napadisylate]
Solution: 3.5
